test system: Enterococcus faecium; assay: Antimicrobial activity against Enterococcus faecium assessed as inhibition of microbial growth after 24 hrs; type: functional
Active and inactive are the calls of the source. The rule behind the calls is not given here.
MEASURE_NAME: MIC

Example compounds with recorded MIC:
| COMPOUND | ASSAYED_SYSTEM | MIC |
| --- | --- | --- |
| CCC[C@@H]1CN(CCCC[C@H]2CNC(=N)N2CC2CCCCC2)C(=N)N1CCc1cccc(C)c1 | Enterococcus faecium | inactive |
| CCC[C@@H]1CN(CCCC[C@H]2CNC(=N)N2CC2CCCCC2)C(=N)N1 | Enterococcus faecium | inactive |
| CCCCCCCN1C(=N)NC[C@@H]1CCCCN1C[C@@H](CCC)NC1=N | Enterococcus faecium | inactive |
| CCCCCCCN1C(=N)N(CCCC[C@H]2CNC(=N)N2CCc2cccc(C(F)(F)F)c2)C[C@@H]1CCCC | Enterococcus faecium | 1.6 µM |
| CCCCCCCN1C(=N)NC[C@@H]1CCCCN1C[C@@H](CCC)N(CCc2cccc(C)c2)C1=N | Enterococcus faecium | inactive |

Need MIC for each of these compounds.
1. CC[C@H](C)[C@H]1CN(CCCC[C@H]2CNC(=N)N2CC2CCCCC2)C(=N)N1
2. CCCCCCCN1C(=N)N(CCCC[C@H]2CNC(=N)N2CCc2cccc(C(F)(F)F)c2)C[C@@H]1CC1CCCCC1
3. CCC(C)CN1CCN(CCCC[C@H]2CNC(=N)N2CC2CCCCC2)C1=N (stereo partly drawn)

["inactive", "1.5 µM", "inactive"]
